System: Escherichia coli TOP10
Assay procedure: shrunken log2 fold change of peptide-encoding DNA abundance (4.5 h post-induction vs induction); higher = less antimicrobial activity (less host growth inhibition)
Condition parameters: time post-induction: 4.5 h; library: site-saturation at positions 5, 18, 19, 20
# Lookup of reported shrunken log2 fold change keyed by entry
Measurement kind: shrunken log2 fold change

> print(dat)
                seq.string   result
1  RRIRMRPPRLPRPRPRPQNYPRP   -0.377
2  RRIRYRPPRLPRPRPRPEQKPRP   0.0039
3  RRIRERPPRLPRPRPRPMIEPRP   -0.184
4  RRIRVRPPRLPRPRPRPHMPPRP   -0.725
5  RRIRCRPPRLPRPRPRPRDRPRP    0.731
6  RRIRWRPPRLPRPRPRPFACPRP  0.00273
7  RRIRIRPPRLPRPRPRPANMPRP    -0.45
8  RRIRKRPPRLPRPRPRPVMIPRP   0.0956

====

Test system: Escherichia coli TOP10
Assay procedure: shrunken log2 fold change of peptide-encoding DNA abundance (4.5 h post-induction vs induction); higher = less antimicrobial activity (less host growth inhibition)
Condition parameters: time post-induction: 4.5 h; library: site-saturation at positions 5, 18, 19, 20
Measurement kind: shrunken log2 fold change

> print(dat)
                 seq.string             target.desc    number
 1  RRIRGRPPRLPRPRPRPEMFPRP  Escherichia coli TOP10    0.0463
 2  RRIRSRPPRLPRPRPRPFLKPRP  Escherichia coli TOP10    -0.632
 3  RRIRHRPPRLPRPRPRPGWIPRP  Escherichia coli TOP10    -0.051
 4  RRIRVRPPRLPRPRPRPNQAPRP  Escherichia coli TOP10    0.0159
 5  RRIRVRPPRLPRPRPRPPCAPRP  Escherichia coli TOP10     0.238
 6  RRIRPRPPRLPRPRPRPCQKPRP  Escherichia coli TOP10  -0.00783
 7  RRIRCRPPRLPRPRPRPVAYPRP  Escherichia coli TOP10    -0.232
 8  RRIRCRPPRLPRPRPRPCFKPRP  Escherichia coli TOP10    -0.603
 9  RRIRERPPRLPRPRPRPKVDPRP  Escherichia coli TOP10    0.0519
10  RRIRSRPPRLPRPRPRPDEGPRP  Escherichia coli TOP10    0.0432
11  RRIRTRPPRLPRPRPRPDFYPRP  Escherichia coli TOP10    -0.241
12  RRIRARPPRLPRPRPRPIKRPRP  Escherichia coli TOP10    0.0415
13  RRIRPRPPRLPRPRPRPWWGPRP  Escherichia coli TOP10   -0.0751
14  RRIRARPPRLPRPRPRPVREPRP  Escherichia coli TOP10      1.01
15  RRIRRRPPRLPRPRPRPQVVPRP  Escherichia coli TOP10    0.0705

====

System: Escherichia coli TOP10
Assay procedure: shrunken log2 fold change of peptide-encoding DNA abundance (4.5 h post-induction vs induction); higher = less antimicrobial activity (less host growth inhibition)
Condition parameters: time post-induction: 4.5 h; library: site-saturation at positions 5, 18, 19, 20
Documented shrunken log2 fold change across a set of sequences
Measurement kind: shrunken log2 fold change

> print(dat)
                 seq.string             target.desc           measurement.kind   number
 1  RRIRIRPPRLPRPRPRPKYRPRP  Escherichia coli TOP10  shrunken log2 fold change   0.0239
 2  RRIRMRPPRLPRPRPRPNYIPRP  Escherichia coli TOP10  shrunken log2 fold change   -0.492
 3  RRIRIRPPRLPRPRPRPLDYPRP  Escherichia coli TOP10  shrunken log2 fold change   -0.504
 4  RRIRSRPPRLPRPRPRPPWVPRP  Escherichia coli TOP10  shrunken log2 fold change    0.433
 5  RRIRKRPPRLPRPRPRPLGCPRP  Escherichia coli TOP10  shrunken log2 fold change    0.659
 6  RRIRKRPPRLPRPRPRPHHKPRP  Escherichia coli TOP10  shrunken log2 fold change   -0.176
 7  RRIRTRPPRLPRPRPRPSCYPRP  Escherichia coli TOP10  shrunken log2 fold change   -0.654
 8  RRIRDRPPRLPRPRPRPITHPRP  Escherichia coli TOP10  shrunken log2 fold change   -0.305
 9  RRIRARPPRLPRPRPRPGGNPRP  Escherichia coli TOP10  shrunken log2 fold change      0.2
10  RRIRLRPPRLPRPRPRPPFWPRP  Escherichia coli TOP10  shrunken log2 fold change    0.308
11  RRIRDRPPRLPRPRPRPLHWPRP  Escherichia coli TOP10  shrunken log2 fold change   -0.124
12  RRIRSRPPRLPRPRPRPRNGPRP  Escherichia coli TOP10  shrunken log2 fold change    0.308
13  RRIRNRPPRLPRPRPRPPAEPRP  Escherichia coli TOP10  shrunken log2 fold change    0.256
14  RRIRWRPPRLPRPRPRPKVCPRP  Escherichia coli TOP10  shrunken log2 fold change  -0.0693
15  RRIRKRPPRLPRPRPRPRYVPRP  Escherichia coli TOP10  shrunken log2 fold change   0.0611

====

Entries and their shrunken log2 fold change values follow.
Tested on: Escherichia coli TOP10
Assay procedure: shrunken log2 fold change of peptide-encoding DNA abundance (4.5 h post-induction vs induction); higher = less antimicrobial activity (less host growth inhibition)
Condition parameters: time post-induction: 4.5 h; library: site-saturation at positions 5, 18, 19, 20
Measurement kind: shrunken log2 fold change

> print(dat)
                 seq.string             target.desc   number
 1  RRIRARPPRLPRPRPRPLQYPRP  Escherichia coli TOP10  0.00717
 2  RRIRRRPPRLPRPRPRPMCMPRP  Escherichia coli TOP10  -0.0115
 3  RRIRSRPPRLPRPRPRPMQWPRP  Escherichia coli TOP10   -0.145
 4  RRIRWRPPRLPRPRPRPTIHPRP  Escherichia coli TOP10     0.13
 5  RRIRDRPPRLPRPRPRPRSSPRP  Escherichia coli TOP10  -0.0289
 6  RRIRKRPPRLPRPRPRPNGLPRP  Escherichia coli TOP10  -0.0579
 7  RRIRKRPPRLPRPRPRPVEHPRP  Escherichia coli TOP10    0.455
 8  RRIRQRPPRLPRPRPRPCHVPRP  Escherichia coli TOP10   -0.167
 9  RRIRKRPPRLPRPRPRPWMKPRP  Escherichia coli TOP10  -0.0454
10  RRIRNRPPRLPRPRPRPVNNPRP  Escherichia coli TOP10   -0.647
11  RRIRQRPPRLPRPRPRPHLVPRP  Escherichia coli TOP10  0.00244
12  RRIRERPPRLPRPRPRPSNKPRP  Escherichia coli TOP10   -0.811
13  RRIRKRPPRLPRPRPRPNMAPRP  Escherichia coli TOP10  0.00469
14  RRIRRRPPRLPRPRPRPGDEPRP  Escherichia coli TOP10  -0.0622
15  RRIRLRPPRLPRPRPRPDDLPRP  Escherichia coli TOP10  -0.0581

====

System: Escherichia coli TOP10
Assay procedure: shrunken log2 fold change of peptide-encoding DNA abundance (4.5 h post-induction vs induction); higher = less antimicrobial activity (less host growth inhibition)
Condition parameters: time post-induction: 4.5 h; library: site-saturation at positions 5, 18, 19, 20
shrunken log2 fold change of -0.1 or higher: met. Under -0.1: not met.

> print(dat)
                 seq.string      cat
 1  RRIRPRPPRLPRPRPRPDEWPRP      met
 2  RRIRFRPPRLPRPRPRPGVCPRP      met
 3  RRIRRRPPRLPRPRPRPRNKPRP      met
 4  RRIRARPPRLPRPRPRPRMSPRP  not met
 5  RRIRRRPPRLPRPRPRPHNYPRP      met
 6  RRIRHRPPRLPRPRPRPTCSPRP      met
 7  RRIRYRPPRLPRPRPRPTSCPRP  not met
 8  RRIRQRPPRLPRPRPRPISHPRP  not met
 9  RRIRYRPPRLPRPRPRPWDEPRP  not met
10  RRIRERPPRLPRPRPRPDFSPRP      met
11  RRIRHRPPRLPRPRPRPLRWPRP      met
12  RRIRGRPPRLPRPRPRPSMNPRP      met
13  RRIRHRPPRLPRPRPRPMYCPRP  not met
14  RRIRWRPPRLPRPRPRPPWHPRP      met
15  RRIRTRPPRLPRPRPRPLLQPRP      met

====

Tested on: Escherichia coli TOP10;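 also: peptides expressed intracellularly from a pBAD plasmid library in pooled LB shake-flask culture, induced with 0.3% L-arabinose, DNA abundance read by NGS, three biological replicates, DESeq2 with apeglm shrinkage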
Assay procedure: shrunken log2 fold change of peptide-encoding DNA abundance (4.5 h post-induction vs induction); higher = less antimicrobial activity (less host growth inhibition)
Condition parameters: time post-induction: 4.5 h; library: site-saturation at positions 5, 18, 19, 20
Returns class 1 if the recorded shrunken log2 fold change is greater than or equal to 0.03, and class 0 otherwise.

> print(dat)
                 seq.string      cat
 1  RRIRCRPPRLPRPRPRPKIRPRP  class 1
 2  RRIRIRPPRLPRPRPRPDDYPRP  class 1
 3  RRIRERPPRLPRPRPRPDNVPRP  class 0
 4  RRIRTRPPRLPRPRPRPMVMPRP  class 0
 5  RRIRERPPRLPRPRPRPTHAPRP  class 1
 6  RRIRQRPPRLPRPRPRPPGQPRP  class 1
 7  RRIRSRPPRLPRPRPRPKHRPRP  class 0
 8  RRIRLRPPRLPRPRPRPARHPRP  class 1
 9  RRIRNRPPRLPRPRPRPGGKPRP  class 0
10  RRIRARPPRLPRPRPRPCMTPRP  class 1
11  RRIRCRPPRLPRPRPRPILCPRP  class 1
12  RRIRSRPPRLPRPRPRPLYVPRP  class 0
13  RRIRHRPPRLPRPRPRPRSSPRP  class 0
14  RRIRGRPPRLPRPRPRPMLFPRP  class 1
